All figures here come from ChEMBL document CHEMBL1132973.

tested on: Streptococcus pneumoniae; assay: In vitro antibacterial activity against Streptococcus pneumoniae strain ATCC 6303.; type: functional
parameter: log10 of MIC (log10 of the value in µg/mL)

smiles_entry=CC[C@H]1OC(=O)[C@H](C)C(=O)[C@H](C)[C@@H](O[C@@H]2O[C@H](C)C[C@H](N(C)C)[C@H]2O)[C@](C)(OC)C[C@@H](C)C(=O)[C@H](C)[C@H]2N(CCCCn3cnc(-c4cccnc4)c3)C(=O)O[C@]12C parameter="log10 of MIC" observed_result=-2.40
smiles_entry=CC[C@H]1OC(=O)[C@H](C)C(=O)[C@H](C)[C@@H](O[C@@H]2O[C@H](C)C[C@H](N(C)C)[C@H]2O)[C@](C)(OC/C=C/c2ccccc2)C[C@@H](C)C(=O)[C@H](C)[C@H]2NC(=O)O[C@@]21C parameter="log10 of MIC" observed_result=-1.52
smiles_entry=CC[C@H]1OC(=O)[C@H](C)C(=O)[C@H](C)[C@@H](O[C@@H]2O[C@H](C)C[C@H](N(C)C)[C@H]2O)[C@](C)(OC/C=C/c2ccccc2)C[C@@H](C)C(=O)[C@H](C)[C@@H](O)[C@]1(C)O parameter="log10 of MIC" observed_result=-0.60
smiles_entry=C=CCO[C@@]1(C)C[C@@H](C)C(=O)[C@H](C)[C@@H](O)[C@](C)(O)[C@@H](CC)OC(=O)[C@H](C)C(=O)[C@H](C)[C@H]1O[C@@H]1O[C@H](C)C[C@H](N(C)C)[C@H]1O parameter="log10 of MIC" observed_result=0.60
smiles_entry=CC[C@H]1OC(=O)[C@H](C)[C@@H](O[C@H]2C[C@@](C)(OC)[C@@H](O)[C@H](C)O2)[C@H](C)[C@@H](O[C@@H]2O[C@H](C)C[C@H](N(C)C)[C@H]2O)[C@](C)(O)C[C@@H](C)C(=O)[C@H](C)[C@@H](O)[C@]1(C)O parameter="log10 of MIC" observed_result=-1.22
smiles_entry=C=CCO[C@@]1(C)C[C@@H](C)C(=O)[C@H](C)[C@H]2NC(=O)O[C@]2(C)[C@@H](CC)OC(=O)[C@H](C)C(=O)[C@H](C)[C@H]1O[C@@H]1O[C@H](C)C[C@H](N(C)C)[C@H]1O parameter="log10 of MIC" observed_result=-0.30
smiles_entry=CC[C@H]1OC(=O)[C@H](C)C(=O)[C@H](C)[C@@H](O[C@@H]2O[C@H](C)C[C@H](N(C)C)[C@H]2O)[C@](C)(OCC=Cc2cnc3ccccc3c2)C[C@@H](C)C(=O)[C@H](C)[C@H]2NC(=O)O[C@@]21C parameter="log10 of MIC" observed_result=-2.40
smiles_entry=CC[C@H]1OC(=O)[C@H](C)C(=O)[C@H](C)[C@@H](O[C@@H]2O[C@H](C)C[C@H](N(C)C)[C@H]2O)[C@@](C)(OC/C=C/c2cnc3ccccc3c2)C[C@@H](C)C(=O)[C@H](C)[C@@H](O)[C@]1(C)O parameter="log10 of MIC" observed_result=-1.52

====

tested on: Streptococcus pneumoniae; assay: In vitro antibacterial activity against Streptococcus pneumoniae strain 5737.; assay type: functional
parameter: MIC (µg/mL)

smiles_entry=CC[C@H]1OC(=O)[C@H](C)C(=O)[C@H](C)[C@@H](O[C@@H]2O[C@H](C)C[C@H](N(C)C)[C@H]2O)[C@](C)(OC/C=C/c2ccccc2)C[C@@H](C)C(=O)[C@H](C)[C@@H](O)[C@]1(C)O target_or_system="Streptococcus pneumoniae" operator== observed_result=64
smiles_entry=CC[C@H]1OC(=O)[C@H](C)C(=O)[C@H](C)[C@@H](O[C@@H]2O[C@H](C)C[C@H](N(C)C)[C@H]2O)[C@](C)(OCC=Cc2cnc3ccccc3c2)C[C@@H](C)C(=O)[C@H](C)[C@H]2NC(=O)O[C@@]21C target_or_system="Streptococcus pneumoniae" operator== observed_result=0.25
smiles_entry=C=CCO[C@@]1(C)C[C@@H](C)C(=O)[C@H](C)[C@H]2NC(=O)O[C@]2(C)[C@@H](CC)OC(=O)[C@H](C)C(=O)[C@H](C)[C@H]1O[C@@H]1O[C@H](C)C[C@H](N(C)C)[C@H]1O target_or_system="Streptococcus pneumoniae" operator=> observed_result=64
smiles_entry=CC[C@H]1OC(=O)[C@H](C)[C@@H](O[C@H]2C[C@@](C)(OC)[C@@H](O)[C@H](C)O2)[C@H](C)[C@@H](O[C@@H]2O[C@H](C)C[C@H](N(C)C)[C@H]2O)[C@](C)(O)C[C@@H](C)C(=O)[C@H](C)[C@@H](O)[C@]1(C)O target_or_system="Streptococcus pneumoniae" operator=> observed_result=128
smiles_entry=CC[C@H]1OC(=O)[C@H](C)C(=O)[C@H](C)[C@@H](O[C@@H]2O[C@H](C)C[C@H](N(C)C)[C@H]2O)[C@@](C)(OC/C=C/c2cnc3ccccc3c2)C[C@@H](C)C(=O)[C@H](C)[C@@H](O)[C@]1(C)O target_or_system="Streptococcus pneumoniae" operator== observed_result=16
smiles_entry=CC[C@H]1OC(=O)[C@H](C)C(=O)[C@H](C)[C@@H](O[C@@H]2O[C@H](C)C[C@H](N(C)C)[C@H]2O)[C@](C)(OC)C[C@@H](C)C(=O)[C@H](C)[C@H]2N(CCCCn3cnc(-c4cccnc4)c3)C(=O)O[C@]12C target_or_system="Streptococcus pneumoniae" operator== observed_result=8
smiles_entry=CC[C@H]1OC(=O)[C@H](C)C(=O)[C@H](C)[C@@H](O[C@@H]2O[C@H](C)C[C@H](N(C)C)[C@H]2O)[C@](C)(OC/C=C/c2ccccc2)C[C@@H](C)C(=O)[C@H](C)[C@H]2NC(=O)O[C@@]21C target_or_system="Streptococcus pneumoniae" operator== observed_result=64
smiles_entry=C=CCO[C@@]1(C)C[C@@H](C)C(=O)[C@H](C)[C@@H](O)[C@](C)(O)[C@@H](CC)OC(=O)[C@H](C)C(=O)[C@H](C)[C@H]1O[C@@H]1O[C@H](C)C[C@H](N(C)C)[C@H]1O target_or_system="Streptococcus pneumoniae" operator=> observed_result=128
